biological target: anti-CD28 scFv (VH - linker 1 - VL) (biotinylated (site not stated)); test: phage ELISA; biotinylated anti-CD28 scFv on neutravidin plate, clonal phage supernatant, anti-M13-HRP detection;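 also: before phage addition, wells were pretreated with soluble CD28 protein in blocking buffer, or with blocking buffer only as the comparison, then phage were added without washing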
Sequence (scFv, as listed by the source): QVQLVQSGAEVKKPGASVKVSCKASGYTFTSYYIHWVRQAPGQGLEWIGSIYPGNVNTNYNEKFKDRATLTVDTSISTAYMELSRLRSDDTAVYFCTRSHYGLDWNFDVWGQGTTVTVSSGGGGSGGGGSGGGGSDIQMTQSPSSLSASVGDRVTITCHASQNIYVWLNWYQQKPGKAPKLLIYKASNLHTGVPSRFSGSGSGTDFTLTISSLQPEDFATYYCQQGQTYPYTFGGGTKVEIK
measure: CD28 scFv signal

binder	numeric_result
MDWCPKFLWDLCFA (peptide, not shown: large carriers, Clonal phage of the Peptide-9 library) [Phage-164]	1.07
MHWCPLHLWNECYH (peptide, not shown: large carriers, Clonal phage of the Peptide-9 library) [Phage-155]	1.37
MAWCPMNLWDQCFF (peptide, not shown: large carriers, Clonal phage of the Peptide-9 library) [Phage-159]	1.2
MDWCPRDLWAVCFA (peptide, not shown: large carriers, Clonal phage of the Peptide-9 library) [Phage-149]	1.67
